Experiment: chemical genetic growth profiling, strain panel (AID 1159580);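 also: tested at 20 µM; growth read once vehicle control cultures reached saturation at 30 °C; 1 = growth at the plate median or of vehicle wells; lower values mean less growth of the strain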
Details: S. cerevisiae deletion strains, growth OD, locus YOL012C, strain htz1
About 2,000 (36%) of roughly 5,500 compounds were called active. About 18% were inconclusive and are not listed. Some of the results follow.
Give measured normalized growth for each item. Keep answers brief.
Give bare numbers.

Some entries whose results are on file:
{"compound": "C/C=C(/C)C(=O)O[C@@H]1Cc2c(ccc3ccc(=O)oc23)OC1(C)C", "normalized growth": 0.999}
{"compound": "C[C@]12CCC(=O)C=C1CCc1ccc(O)cc12", "normalized growth": 1.09}
{"compound": "CC1=CC(=O)C(C(C)C)=CC1=O", "normalized growth": 0.626}
{"compound": "CC(=O)N1CCN(c2ccc(OCC3CO[C@](Cn4ccnc4)(c4ccc(Cl)cc4Cl)O3)cc2)CC1 (stereo not given in full)", "normalized growth": 0.25}

Continue with the next compound.
Request: May I ask what normalized growth has been recorded for CO[C@@H]1[C@@H](OC(N)=O)[C@@H](O)[C@H](Oc2ccc3c(O)c(NC(=O)c4ccc(O)c(CC=C(C)C)c4)c(=O)oc3c2C)OC1(C)C ?
Result: 1

----------
Experiment: chemical genetic growth profiling, strain panel (AID 1159580);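 also: tested at 20 µM; growth read once vehicle control cultures reached saturation at 30 °C; 1 = growth at the plate median or of vehicle wells; lower values mean less growth of the strain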
Details: S. cerevisiae deletion strains, growth OD, locus YAL040C, strain CLN3, active compounds read low
About 2,000 (36%) of roughly 5,500 compounds were called active. Inconclusive results (about 18%) are left out. The list shows a part of the results.
measured_attribute: normalized growth
Numbers only.

Examples from the recorded data:
{"compound": "O=C(CCCN1CCC2(CC1)C(=O)N(CCc1ccc(N=C=S)cc1)CN2c1ccccc1)c1ccc(F)cc1", "normalized growth": 1.04}
{"compound": "O=C(O)CCC(=O)N1CCCC1C(=O)O (stereo not drawn)", "normalized growth": 1.03}

Lab note: next compound to report on.
Request: Please look up its normalized growth: COc1ccccc1N1CCN(CCCCN2C(=O)c3ccccc3C2=O)CC1
Result: 0.99

----------
Assay: chemical genetic growth profiling, strain panel (AID 1159580);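 also: tested at 20 µM; growth read once vehicle control cultures reached saturation at 30 °C; 1 = growth at the plate median or of vehicle wells; lower values mean less growth of the strain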
Details: S. cerevisiae deletion strains, growth OD, locus YMR205C, strain PFK2
Screen size: about 5,500 compounds; about 2,000 (36%) were called active. Roughly 18% stayed inconclusive and do not appear here. No stated cut-off is given here; in the data, active means normalized growth mostly below about 0.91 (no sharp cut-off); inconclusive means no clear call, values can overlap the other calls; inactive means mostly above about 0.92. This is one part of the list.
Please answer using one outcome listed in 1 = active, -1 = inactive

{"compound": "CC1(C)Oc2ccc3ccc(=O)oc3c2CC1O (stereo not given)", "category_label": -1}
{"compound": "Cc1cc(N)c2ccccc2[n+]1CCCCCCCCCC[n+]1c(C)cc(N)c2ccccc21", "category_label": 1}
{"compound": "C[N+]1(C)C[C@H](O)[C@H](C(=O)[O-])C1", "category_label": -1}
{"compound": "CC(=O)OCC(=O)[C@@]1(O)CCC2C3C[C@H](C)C4=CC(=O)C=CC4(C)C3[C@@H](O)CC21C (stereo not given in full)", "category_label": -1}

Now take the following compound into account.
Request: Each compound tested received a call. Report the one for CC(C)(C)NCC(O)COc1cccc2c1CCCC2=O (stereo not given) .
Result: -1

----------
Test: chemical genetic growth profiling, strain panel (AID 1159580);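 also: tested at 20 µM; growth read once vehicle control cultures reached saturation at 30 °C; 1 = growth at the plate median or of vehicle wells; lower values mean less growth of the strain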
Conditions: S. cerevisiae deletion strains, growth OD, locus YMR058W, strain fet3
In all, about 5,500 compounds went through this assay and about 2,000 (36%) were called active. Another 18% or so got no clear call; they are omitted. Cut-off read from the data, not from the text of the source: active = normalized growth mostly below about 0.91 (no sharp cut-off); inconclusive = no clear call, values can overlap the other calls; inactive = mostly above about 0.92. The list shows a part of the results.
The categories you may choose from are active, inactive

{"compound": "O=C(CCCN1CCC2(CC1)C(=O)NCN2c1ccccc1)c1ccc(F)cc1", "category_label": "inactive"}
{"compound": "CC1=C2C(O)C(=O)OC3CC4C(C)(C)C(=O)C=C[C@]4(C)C(CC1)[C@]23C (stereo partly specified)", "category_label": "inactive"}
{"compound": "COC1CC(OC2CCC3(C)C(CCC4C3CCC3(C)C(C5=CC(=O)OC5)C(OC(C)=O)CC43O)C2)OC(C)C1O (stereo unspecified)", "category_label": "inactive"}
{"compound": "CCC(=O)NCC[C@@H]1CCc2ccc3c(c21)CCO3", "category_label": "inactive"}
{"compound": "CN[C@H]1CC[C@@H](c2ccc(Cl)c(Cl)c2)c2ccccc21", "category_label": "active"}

Request: Just curious, what result did COC1CC(O[C@H]2CC[C@]3(C=O)C4CC[C@]5(C)C(C6=CC(=O)OC6)CC[C@]5(O)C4CC[C@]3(O)C2)OC(C)C1O (stereo partly specified) get here?
Result: inactive

Request: Same read-out for CC1=CC(=O)C2C(C)(C)CCC[C@]2(C)[C@@]1(O)CCc1ccoc1 (stereo partly specified) ?
Result: inactive

Request: Proceed to NC(=O)c1ccccc1O
Result: inactive

Request: Check CC(=O)OC1CC[C@@]2(C)C(CCC3C2CC[C@]2(C)C(C4=CC(=O)OC4)C(OC(C)=O)CC32O)C1 (stereo partly specified) too.
Result: inactive

Request: What would you report for CC(C)(C)NCC(O)COc1cccc2c1C[C@H](O)[C@H](O)C2 (stereo partly specified) ?
Result: inactive

Request: And for CN(C)C(=O)C(CCN1CCC(O)(c2ccc(Cl)cc2)CC1)(c1ccccc1)c1ccccc1 ?
Result: inactive
